Tested on: AMPK
protocol.details: AMPK activation (AMPKα immunoassay kit, phospho-Thr172) in MCF7 cells
Type: cell-based, human
Design: unit not given here
condition.context: 50 uM compound, 24 h
Outcome: condition met for AMPK Activation 50 uM (degree of phosphorylated AMPKα Thr172) of at least 9; condition not met for anything lower.

Exam item: I'd appreciate it if you could say whether `Cl.N=C(N)N/C(=N/Cc1cccnc1)Nc1ccccc1` has AMPK Activation 50 uM (degree of phosphorylated AMPKα Thr172) at least equal to 9.
Marked response: condition not met

Exam item: Queued: `CCCCN/C(=N\CCc1ccc(Cl)cc1)NC(=N)N.Cl`
Marked response: condition met

Exam item: Now consider `Cl.N=C(N)N/C(=N/CCc1ccccc1)NCCc1ccccc1` .
Marked response: condition met

Exam item: Next entry: `CCCCN(Cc1ccccc1)/C(=N\CCc1ccccc1)NC(=N)N.Cl`
Marked response: condition met

Where do the numbers come from? From patent US9464042B2.
